assay: Selectivity index, ratio of GI50 for cytotoxicity against HUVEC cells to MIC for antitubercular activity against active stage of Mycobacterium tuberculosis H37Ra; format: toxicity, cell-based; settings: human, read-out: Selectivity Index
metric: selectivity ratio

Req: Would you mind telling me what selectivity ratio value was observed for COC(=O)c1ccsc1NC(=O)[C@@H]1CCCN1 ?
Resp: > 20.9

Req: Then this compound: O=C(OCC(F)(F)F)c1ccsc1NC(=O)[C@@H]1CCCN1
Resp: > 30.4

Req: # iterate: CCOC(=O)c1ccsc1NC(=O)[C@@H]1CCCN1
Resp: > 27.5

Req: Subsequent entry: O=C(OCc1ccccc1)c1ccsc1NC(=O)[C@@H]1CCCN1
Resp: > 11.8

Req: Repeat for the following compound: O=C(OCC(Cl)(Cl)Cl)c1ccsc1NC(=O)[C@@H]1CCCN1
Resp: > 12.3

Req: Now this one: O=C(Oc1ccccc1)c1ccsc1NC(=O)[C@@H]1CCCN1
Resp: > 10.1

----------
experiment: Selectivity index, ratio of GI50 for cytotoxicity against human HeLa cells to MIC for antitubercular activity against active stage of Mycobacterium tuberculosis H37Ra; format: toxicity, cell-based; settings: read-out: Selectivity Index
Can you tell me selectivity ratio for the items I'm about to list?

Req: # lookup: selectivity ratio of COC(=O)c1ccsc1NC(=O)[C@@H]1CCCN1
Resp: > 20.9

Req: Likewise for O=C(OCc1ccccc1)c1ccsc1NC(=O)[C@@H]1CCCN1 ?
Resp: > 11.8

Req: Next: O=C(OCC(Cl)(Cl)Cl)c1ccsc1NC(=O)[C@@H]1CCCN1
Resp: > 12.3

Req: Please give the result for O=C(Oc1ccccc1)c1ccsc1NC(=O)[C@@H]1CCCN1 too.
Resp: > 10.1

----------
test system: Mycobacterium tuberculosis; test: Antimycobacterial activity against Mycobacterium tuberculosis H37Rv; format: functional
Assignment: determine reported MIC99 for the given molecules.

Req: So what's the measured MIC99 for this one? CC(=O)N1/C(=C/c2ccc(NC(C)C)cc2)C(=O)c2ccccc21
Resp: > 20 µM

Req: Please answer likewise for CC(=O)N1/C(=C/c2ccc(Oc3ccc(Cl)cc3)cc2)C(=O)c2ccccc21
Resp: 8.4 µM

Req: And CC(=O)N1/C(=C/c2cccc(-c3ccc(C(F)(F)F)cc3)c2)C(=O)c2ccccc21 ?
Resp: 17.5 µM

Req: Please answer likewise for CC(=O)N1/C(=C/c2ccc(-c3ccccc3)cc2)C(=O)c2ccccc21
Resp: 2.29 µM

Req: Now give it for CO[C@H]1/C=C/O[C@@]2(C)Oc3c(C)c(O)c4c(O)c(c(/C=N/N5CCN(C)CC5)c(O)c4c3C2=O)NC(=O)/C(C)=C\C=C\[C@H](C)[C@H](O)[C@@H](C)[C@@H](O)[C@@H](C)[C@H](OC(C)=O)[C@@H]1C too.
Resp: 0.00482 µM

Req: And CC(=O)N1/C(=C/c2ccccc2)C(=O)c2cc(-c3ccccc3)ccc21 ?
Resp: 1.39 µM

Req: Input CC(=O)N1/C(=C/c2ccc(OCc3ccccc3)cc2)C(=O)c2ccccc21
Resp: 2.58 µM

Req: Same read-out for CC(=O)N1/C(=C/c2cccc(-c3cnc4ccccc4c3)c2)C(=O)c2ccccc21 ?
Resp: 3.13 µM

Req: Moving on to the next molecule: CC(=O)N1/C(=C/c2ccc(Br)cc2)C(=O)c2ccccc21
Resp: 0.37 µM

Req: Then this molecule: CC(=O)N1/C(=C/c2ccc(-c3ccc(OC(F)(F)F)cc3)cc2)C(=O)c2cc(Cl)ccc21
Resp: > 20 µM

Req: Please give the result for CC(=O)N1/C(=C/c2ccc(-c3ccccc3)cc2)C(=O)c2cc(C)ccc21 too.
Resp: > 20 µM

Req: # iterate: CC(=O)N1/C(=C/c2ccc(-c3ccc(OC(F)(F)F)cc3)cc2)C(=O)c2ccccc21
Resp: 3.19 µM

Req: Would you mind doing CC(=O)N1/C(=C/c2cccc(-c3ccc(OC(F)(F)F)cc3)c2)C(=O)c2ccccc21 as well?
Resp: > 20 µM
